Below, each entry is listed alongside its reported Inoculations Passed.
Test system: mixed bacterial inoculum
Cond: AIRFLEX 192 VAE polymer; biocide dosage 300 ppm active ingredient
Where a name gives a salt, the structure may show the parent alone.

{"Molecule": "O=P([O-])([O-])[O-].[Na+].[Na+].[Na+] [Trisodium phosphate]", "Measure": "Inoculations Passed", "Result": 0}
{"Molecule": "O=C(O)/C=C\\C(=O)O [Maleic acid, sodium salt]", "Measure": "Inoculations Passed", "Result": 0}
{"Molecule": "O=C([O-])c1ccccc1O.[Na+] [Salicylic acid, sodium salt]", "Measure": "Inoculations Passed", "Result": 0}
{"Molecule": "O=C(O)CC(O)(CC(=O)O)C(=O)O [Citric acid, sodium salt]", "Measure": "Inoculations Passed", "Result": 0}
{"Molecule": "CCCCCCCCCCCCCCCC[n+]1ccccc1 [CPC, cetylpyridinium chloride]", "Measure": "Inoculations Passed", "Result": 0}

The molecule listed as CCCCCCCCCC[N+](C)(C)CCCCCCCCCC.[Cl-] [BTC 1010, Didecyldimethylammonium chloride] shows Inoculations Passed equal to 0
